The measured values listed here are drawn from paper PMC12667295.

# EXPERIMENT_NOTES: Protein binding in rat brain homogenate (equilibrium dialysis)
Listing: fraction unbound at 6 h, 5 µM of selected compounds
MEASURED_PROPERTY: fraction unbound at 6 h, 5 µM

{"columns": ["COMPOUND", "MEASURED_PROPERTY", "RESULT"],
 "data": [
  ["COc1ccc2c(c1)[C@]13CCCC[C@@H]1[C@H](C2)N(C)CC3", "fraction unbound at 6 h, 5 µM", 0.033],
  ["Cc1ncc2n1-c1ccc(Cl)cc1C(c1ccccc1F)=NC2", "fraction unbound at 6 h, 5 µM", 0.022],
  ["NC(=O)C[S+]([O-])C(c1ccccc1)c1ccccc1 (stereo not drawn)", "fraction unbound at 6 h, 5 µM", 0.308]
]}

----------
# System: P-gp (human MDR1)
# EXPERIMENT_NOTES: Bidirectional transport across LLC-PK1-MDR1 monolayer stably expressing human MDR1 (P-gp) (Transwell)
# MEASUREMENT_PARAMETERS: pig, LLC-PK1, pH 7.4, ER, LLC-PK1-MDR1; Papp (B-A)/Papp (A-B)
Cut-off 1 on efflux ratio at 2 h, 2 µM, inclusive. At or above means YES; below means NO.

{"columns": ["MOLECULE", "ASSIGNED_CLASS"],
 "data": [
  ["Fc1ccc([C@@H]2CCNC[C@H]2COc2ccc3c(c2)OCO3)cc1", "YES"],
  ["CN(C)CCC=C1c2ccccc2CCc2ccccc21", "YES"],
  ["CN(Cc1cnc2nc(N)nc(N)c2n1)c1ccc(C(=O)N[C@@H](CCC(=O)O)C(=O)O)cc1 [Methotrexate]", "NO"],
  ["CC(C)(C)NCC(O)c1ccc(O)c(CO)c1 (centres unmarked)", "YES"],
  ["COc1ccc2cc1Oc1ccc(cc1)C[C@H]1c3cc(c(OC)cc3CCN1C)Oc1c(OC)c(OC)cc3c1[C@H](C2)N(C)CC3", "YES"]
]}

----------
# Test system: P-gp (human MDR1)
# EXPERIMENT_NOTES: Bidirectional transport across LLC-PK1-MDR1 monolayer stably expressing human MDR1 (P-gp) (Transwell);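 further: 2 h incubation at 37 °C, receiver HBSS with 10 mM Hepes plus 1% BSA, LC-MS/MS of donor and receiver, recovery as receiver plus donor amount over initial donor amount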
# MEASUREMENT_PARAMETERS: pig, LLC-PK1, pH 7.4, Papp A-B, LLC-PK1-MDR1, 2 µM, 2 h, mean ± s, n = 3
Listing: Papp A→B at 2 h, 2 µM of selected molecules

{"columns": ["MOLECULE", "UNITS_OF_MEASURE", "Papp A→B at 2 h, 2 µM"],
 "data": [
  ["CN/C(=N/CCSCc1nc[nH]c1C)NC#N [Cimetidine]", "nm/s", 13.2],
  ["CN(C)CCC=C1c2ccccc2CCc2ccccc21 [Amitriptyline]", "nm/s", 68.4],
  ["Cn1c(=O)c2c(ncn2C)n(C)c1=O [Caffeine]", "nm/s", 364],
  ["CC(C)(C)NCC(O)c1ccc(O)c(CO)c1 (stereo not drawn) [Salbutamol]", "nm/s", 18.8],
  ["CN(Cc1cnc2nc(N)nc(N)c2n1)c1ccc(C(=O)N[C@@H](CCC(=O)O)C(=O)O)cc1 [Methotrexate]", "nm/s", 5.5],
  ["COc1ccc2[nH]c([S+]([O-])Cc3ncc(C)c(OC)c3C)nc2c1 (stereo not drawn) [Omeprazole]", "nm/s", 254],
  ["Fc1ccc([C@@H]2CCNC[C@H]2COc2ccc3c(c2)OCO3)cc1 [Paroxetine]", "nm/s", 51.5],
  ["CCN(CC)CCNC(=O)c1c(C)[nH]c(/C=C2\\C(=O)Nc3ccc(F)cc32)c1C [Sunitinib]", "nm/s", 22.3],
  ["Cc1cccc([C@H](C)c2cnc[nH]2)c1C [Dexmedetomidine]", "nm/s", 302]
]}
